Reference for the values: patent USRE36385E

Would you kindly list Survival period for each of these molecules?
Tested on: Meth-A sarcoma
Test: Anti-tumor effect on Balb/C mice inoculated with Meth-A Sarcoma
Assay type: in vivo, female Balb/C mice
Conditions: dose 3 (mg/kg), iv tail vein Day 7, 9, 12; day ± standard error
One number for each entry, in days.

[[record]]
molecule = "CCCCCCCCCCOc1ccc(C(=O)N[C@H]2[C@@H](OC)O[C@H](CO)[C@@H](OS(=O)(=O)O)[C@@H]2OC(=O)c2ccc(OCCCCCCCCCC)c(OCCCCCCCCCC)c2)cc1OCCCCCCCCCC [4(b)]"
recordedendpoint = "Survival period"
valueunits = "days"
resultvalue = 61.6

[[record]]
molecule = "CCCCCCCCCCC[C@@H](CC(=O)N[C@H]1C(O)O[C@H](CO)[C@@H](OS(=O)(=O)O)[C@@H]1OC(=O)CCCCCCCCc1ccccc1)OC(=O)CCCCCCCCc1ccccc1 (stereo partly shown) [1(c)]"
recordedendpoint = "Survival period"
valueunits = "days"
resultvalue = 46.8

[[record]]
molecule = "CCCCCCCCCCCCCC(=O)O[C@H]1[C@H](OS(=O)(=O)O)[C@@H](CO)OC(O)[C@@H]1NC(=O)c1ccc(OCCCCCCCCCC)c(OCCCCCCCCCC)c1 (stereo partly shown) [Example 4]"
recordedendpoint = "Survival period"
valueunits = "days"
resultvalue = 48.5


Here is the next item to consider.
// fetch Survival period given entry CCCCCCCCCCCCCC(=O)N[C@H]1C(O)O[C@H](CO)[C@@H](OS(=O)(=O)O)[C@@H]1OC(=O)c1ccc(OCCCCCCCCCC)c(OCCCCCCCCCC)c1 (stereo partly shown) [4(c)]
51.9
